Assembled from different publications: pIC50 for IRAK4 (Homo sapiens (Human)).
pIC50: −log10 of the molar value.
Respond with 1.0 for pIC50 values of 8 and above, 0.0 for values below.

N#Cc1cccc(-c2cnc(Nc3cccc(C(=O)N4CCCC4)c3)nc2N[C@@H]2CCCC[C@@H]2C(N)=O)c1
0.0
CC(C)(O)[C@H](F)CNC(=O)c1cnc(Nc2ccn3nccc3n2)cc1NC1CCCC1F (stereo partly shown)
1.0
CC(C)(F)CCNC(=O)c1cnc(-c2cnn3cc(Cl)cnc23)cc1NC1COC1
0.0

[ask] Check this compound for pIC50 at or above 8: CC(=O)NC12CCC(Nc3cc(Nc4ccc5ncsc5c4)ncc3C(=O)NC[C@@H](F)C(C)(C)O)(CC1)C2
[reply] 1.0

[ask] Check this compound for pIC50 at or above 8: COC(=O)NC1CCC(c2cn(-c3cnc(-n4ncc5cc(C#N)cnc54)cc3NC(C)C)nn2)CC1 (stereo not shown)
[reply] 1.0

----------
Assembled from different publications: pIC50 for IRAK4 (Homo sapiens (Human)).
Notebook: values listed as pIC50 are -log10 of the concentration (mol/L).

Look over these answered cases.
CC(C)Nc1cc(Nc2ccn3ncc(F)c3n2)ncc1C(=O)NC[C@@H](F)C(C)(C)O
8.72
CC(C)Nc1c(C(=O)NC[C@@H](F)C(C)(C)O)nnc2ccc(-c3cn[nH]c3)cc12
8.80

[ask] Recall the reported pIC50 of CC(F)(F)Cn1cc(Nc2cc(-c3cnc4cc(C#N)cnn34)ncc2C(=O)NC[C@@H](F)C(C)(C)O)cn1 when tested on IRAK4 (Homo sapiens (Human)).
[reply] 8.70

[ask] Recall the reported pIC50 of CC(C)Nc1c(C(=O)NCCC(F)(F)F)cnc2ccc(-c3cn[nH]c3)cc12 when tested on IRAK4 (Homo sapiens (Human)).
[reply] 7.84

----------
Assembled from different publications: IC50 for IRAK4 (Homo sapiens (Human), UniProt Q9NWZ3).

Look over these answered cases.
CC(C)Nc1c(C(=O)NCc2nccs2)cnc2c1[nH]c1cc(C#N)ccc12
17 nM
CN(CC1CC(F)(F)C1)c1nc(-c2cccc(-c3cnn(C)c3)c2)ncc1-c1ccn(C)n1
1000 to 5000 nM
Cn1cc(-c2cccc(C(=O)Nc3nc(CCCC(=O)NC4CCC(O)CC4)cn3-c3ccccc3)c2)cn1 (stereo not shown)
< 50 nM

# evaluate next
[ask] Tell me IC50 reported for CC(=O)N1CCC(N2CC(n3cc(NC(=O)c4cccc(-c5cnn(C)c5)n4)c(C(F)F)n3)C2)CC1
[reply] 4.2 nM

----------
Assembled from different publications: pIC50 for IRAK4 (Homo sapiens (Human), UniProt Q9NWZ3).
pIC50: −log10 of the molar value.

[ask] Recall the reported pIC50 of COc1cc2c(OCC3CCC(=O)N3)cccc2nc1C(N)=O (centres unmarked) when tested on IRAK4 (Homo sapiens (Human), UniProt Q9NWZ3).
[reply] 6.00 to 7.00

[ask] Recall the reported pIC50 of CC(N)c1cccc(-c2ccc3cnn(-c4cccc(CN)n4)c3c2)n1 (centres unmarked) when tested on IRAK4 (Homo sapiens (Human), UniProt Q9NWZ3).
[reply] 6.00 to 7.00

[ask] Recall the reported pIC50 of Cc1cc(Nc2nc(NC3CCCCC3)c3c(ccn3-c3cnn(C)c3)n2)sn1 when tested on IRAK4 (Homo sapiens (Human), UniProt Q9NWZ3).
[reply] 6.00 to 7.00

[ask] Recall the reported pIC50 of CC(C)(O)[C@H](F)CNC(=O)c1cnc(-c2cnn3cc(Cl)cnc23)cc1NCC1(O)CCC1 when tested on IRAK4 (Homo sapiens (Human), UniProt Q9NWZ3).
[reply] 8.00

[ask] Recall the reported pIC50 of CCOC(C)n1cc(-c2cccc(C(=O)Nc3nc(CCCCCCN4CCCCC4)cn3-c3ccccc3)c2)cn1 (centres unmarked) when tested on IRAK4 (Homo sapiens (Human), UniProt Q9NWZ3).
[reply] 7.00 to 7.30

----------
Assembled from different publications: IC50 for UniProtKB Q9NWZ3.
Give the value in nM but do not write nM after it.

Look over these answered cases.
CC(C)Nc1c(C(=O)NC[C@@H](F)C(C)(C)O)cnc2sc(-c3cnc(N)s3)cc12
6
O=C(Nc1cc2cn(C3CCNCC3)nc2cc1C(=O)O)c1cccc(C(F)(F)F)n1
75

# evaluate next
[ask] Tell me IC50 reported for CC(C)(O)[C@H](F)CNC(=O)c1cnc(-c2cnc3cc(C#N)cnn23)cc1Nc1cnn(C2CC(F)(F)C2)c1
[reply] 2

----------
pIC50: −log10 of the molar value.
Assembled from different publications: pIC50 for UniProt Q9NWZ3.

CC[C@]1(N(C)C)CC[C@H](Oc2ncnc3sc4c(c23)[C@@H](CCO)CC4)CC1
> 5.30
NCCNc1ccn2ncc(C(=O)Nc3cn(-c4cccnc4)nc3C(N)=O)c2n1
9.15
CC(C)Nc1cc(-c2ccc3cc(C#N)cnn23)ncc1-c1cn(C23CC(C2)C3)nn1
7.85
c1[nH]c2ncc3nc(C4CCCNC4)cn3c2c1C1CCOCC1 (centres unmarked)
> 7.00
CC(O)c1ccnc(-n2ncc3ccc(-c4cccc([C@@H](N)[C@H]5C[C@@H](O)C5)n4)cc32)n1 (some centres unmarked)
≥ 7.00

[ask] Recall the reported pIC50 of NC(=O)C[C@H]1CCc2sc3ncnc(O[C@H]4CC[C@H](N5CCCCC5)CC4)c3c21 when tested on UniProt Q9NWZ3.
[reply] > 5.30

[ask] Recall the reported pIC50 of C[C@H]1CCCCN1C(=O)CCCc1cn(-c2ccccc2)c(NC(=O)c2cccc(-c3cn[nH]c3)c2)n1 when tested on UniProt Q9NWZ3.
[reply] > 7.30

[ask] Recall the reported pIC50 of Cn1cc(NC(=O)c2ccc3ccc(N4C[C@@H]5CN[C@@H](C5)C4)nn23)c(C(F)F)n1 (single isomer, unassigned) when tested on UniProt Q9NWZ3.
[reply] 7.92

----------
Assembled from different publications: pIC50 for IRAK4 (Homo sapiens (Human)).
Notebook: values listed as pIC50 are -log10 of the concentration (mol/L).

Look over these answered cases.
Nc1cc(-c2ccc3ncnc(N[C@H]4CC[C@H](N5CCO[C@H](CF)C5)CC4)c3c2)cnc1F
8.22
OC[C@H]1C[C@@H](Nc2nc(NC3CNC3)ncc2-c2nc3ccccc3s2)[C@H](O)[C@@H]1O
6.13
CC(C)Nc1cc(-n2ncc3cc(C#N)cnc32)ncc1-c1cn(C2CN(C(=O)CC3CC3)C2)nn1
8.40
CC(C)(O)[C@H](F)CNC(=O)c1cnc(Nc2ccc3nccn3n2)cc1NC1CCCC1F (stereo partly drawn)
8.55
CC(C)(C)C(=O)OCN1C(=O)CCN(c2cc(C(=O)N3CCC4(CCC(CCN5CCC(n6cc7cc(NC(=O)c8cccc(C(F)(F)F)n8)c(C(C)(C)O)cc7n6)CC5)CC4)CC3)ccc2Cl)C1=O
6.94
CN(C)[C@H]1CC[C@H](Nc2ncnc3ccc(-c4cc(O)c(F)c(F)c4)cc23)CC1
8.40
CC(=O)N1CC(Cn2cnc(-c3cnc(-n4ncc5cc(C#N)cnc54)cc3NC(C)C)c2)C1
7.80
Cc1nc(NCC2CCNCC2)nc(N[C@@H]2C[C@H](CO)[C@@H](O)[C@H]2O)c1-c1nc2ccccc2s1
4.88

# evaluate next
[ask] Recall the reported pIC50 of CC(C)OC1CC(Nc2cc(-c3cnn4cc(Cl)cnc34)ncc2C(=O)NC[C@@H](F)C(C)(C)O)CC1(F)F (single isomer, unassigned) when tested on IRAK4 (Homo sapiens (Human)).
[reply] 8.40

----------
Assembled from different publications: pIC50 for IRAK4 (Homo sapiens (Human)).
Notebook: values listed as pIC50 are -log10 of the concentration (mol/L).

Look over these answered cases.
CNC(=O)c1cnc2cc(-c3ccc4ncsc4c3)nn2c1NC(C)C
6.23
OC[C@H]1C[C@@H](Nc2nc(NC3CCOCC3)ncc2-c2nc3ccccc3s2)[C@H](O)[C@@H]1O
5.97
CC(C)Nc1c(C(=O)NC[C@@H](F)C(C)(C)O)cnn2cc(-c3cccc(C#N)c3)cc12
7.92
COc1cncc(-c2ccc3ncnc(N[C@H]4CC[C@H](N5CCOCC5)CC4)c3c2)c1
7.74
CC(C)(O)[C@H](F)CNC(=O)c1cnc(Nc2ccc3ncsc3c2)cc1NC12CCC(NS(C)(=O)=O)(CC1)C2
8.57

[ask] Recall the reported pIC50 of COc1cc2nn(C3CNC(=O)C3)cc2cc1NC(=O)c1cccc(C(F)(F)F)n1 (stereo not shown) when tested on IRAK4 (Homo sapiens (Human)).
[reply] 7.89

[ask] Recall the reported pIC50 of CCCc1cn(-c2cnc(-n3ncc4cncnc43)cc2Nc2cnn(CC(F)F)c2)nn1 when tested on IRAK4 (Homo sapiens (Human)).
[reply] 8.22

[ask] Recall the reported pIC50 of CC(C)(O)[C@H](F)CNC(=O)c1cnc(-c2cnn3cc(Cl)cnc23)cc1N[C@@H]1COC[C@H]1F when tested on IRAK4 (Homo sapiens (Human)).
[reply] 8.15

[ask] Recall the reported pIC50 of CC1(O)CCC(Nc2cc(Nc3ccc4ncsc4c3)ncc2C(=O)NC[C@@H](F)C(C)(C)O)C1 (stereo partly shown) when tested on IRAK4 (Homo sapiens (Human)).
[reply] 8.17

[ask] Recall the reported pIC50 of O=C1CC[C@@H](COc2nccc3cc4c(=O)[nH]cc(C5CNC5)c4cc23)N1 when tested on IRAK4 (Homo sapiens (Human)).
[reply] 5.62
